# Experimental Details: pKa value by 1H NMR titration experiments; pK2
# Type: physicochemical
Measured Endpoint: pKa
In your answer, state the number alone without any accompanying words.

For Cc1onc(O)c1CC(N)C(=O)O [(R,S)-AMPA] the compound record lists pKa as 5.2

For "N[C@H](C(=O)O)[C@@H]1C[C@@H]1C(=O)O" the compound record lists pKa as 4.6

For "COC[C@@H]1[C@H](C(=O)O)[C@H]1[C@H](N)C(=O)O" the compound record lists pKa as 4

For "COC[C@H]1[C@H](C(=O)O)[C@H]1[C@H](N)C(=O)O" the compound record lists pKa as 4.2

For "C=C(C)[C@H]1CN[C@H](C(=O)O)[C@H]1CC(=O)O" the compound record lists pKa as 4.3

For "N[C@H](C(=O)O)[C@@H]1C[C@H]1C(=O)O" the compound record lists pKa as 4.2

For "COC[C@@H]1[C@H](C(=O)O)[C@@H]1[C@H](N)C(=O)O" the compound record lists pKa as 5.1

For "N[C@H](C(=O)O)[C@H]1C[C@@H]1C(=O)O" the compound record lists pKa as 4.2

For "COC[C@H]1[C@H](C(=O)O)[C@@H]1[C@H](N)C(=O)O" the compound record lists pKa as 4.7

For "N[C@H](C(=O)O)[C@H]1C[C@H]1C(=O)O" the compound record lists pKa as 4.3
